- Tested on: TTR
- Measurement description: TTR editing in primary cyno hepatocytes electroporated with Spy Cas9 protein and sgRNAs (Tables 14, 15)
- Format: cell-based, cynomolgus monkey
- Condition parameters: Table 14; primary cyno hepatocytes electroporated with Spy Cas9 protein (RNP) and sgRNAs
Strand notation (5' to 3'): a small letter for the sugar, then the base; units joined by * are phosphorothioate-linked, units joined directly phosphodiester-linked; [ ] holds rarer units or linkages, { } end groups; capitals alone tell only the bases. m = 2'-O-methyl; r = 2'-OH (RNA)
Assay endpoint: Avg % Edit (%)

Molecule	Recorded number
G000498: TTR sgRNA modified sequence, Human, SEQ ID No. 105; guide sequence of CR003359 (nucleic acid) guide: mA*mG*mU*rGrArGrUrCrUrGrGrArGrArGrCrUrGrCrArGrUrUrUrUrArGrAmGmCmUmAmGmAmAmAmUmAmGmCrArArGrUrUrArArArArUrArArGrGrCrUrArGrUrCrCrGrUrUrArUrCrAmAmCmUmUmGmAmAmAmAmAmGmUmGmGmCmAmCmCmGmAmGmUmCmGmGmUmGmCmU*mU*mU*mU	91.37
G000488: TTR sgRNA modified sequence, Human, SEQ ID No. 95; guide sequence of CR003346 (nucleic acid) guide: mA*mA*mA*rGrUrUrCrUrArGrArUrGrCrUrGrUrCrCrGrGrUrUrUrUrArGrAmGmCmUmAmGmAmAmAmUmAmGmCrArArGrUrUrArArArArUrArArGrGrCrUrArGrUrCrCrGrUrUrArUrCrAmAmCmUmUmGmAmAmAmAmAmGmUmGmGmCmAmCmCmGmAmGmUmCmGmGmUmGmCmU*mU*mU*mU	9.63
G000493: TTR sgRNA modified sequence, Human, SEQ ID No. 100; guide sequence of CR003368 (nucleic acid) guide: mA*mA*mG*rUrGrCrCrUrUrCrCrArGrUrArArGrArUrUrGrUrUrUrUrArGrAmGmCmUmAmGmAmAmAmUmAmGmCrArArGrUrUrArArArArUrArArGrGrCrUrArGrUrCrCrGrUrUrArUrCrAmAmCmUmUmGmAmAmAmAmAmGmUmGmGmCmAmCmCmGmAmGmUmCmGmGmUmGmCmU*mU*mU*mU	50.13
G000489: TTR sgRNA modified sequence, Human, SEQ ID No. 96; guide sequence of CR003344 (nucleic acid) guide: mU*mU*mU*rGrArCrCrArUrCrArGrArGrGrArCrArCrUrGrUrUrUrUrArGrAmGmCmUmAmGmAmAmAmUmAmGmCrArArGrUrUrArArArArUrArArGrGrCrUrArGrUrCrCrGrUrUrArUrCrAmAmCmUmUmGmAmAmAmAmAmGmUmGmGmCmAmCmCmGmAmGmUmCmGmGmUmGmCmU*mU*mU*mU	67.53
G000481: TTR sgRNA modified sequence, Human, SEQ ID No. 88; guide sequence of CR003345 (nucleic acid) guide: mU*mC*mU*rArGrArArCrUrUrUrGrArCrCrArUrCrArGrGrUrUrUrUrArGrAmGmCmUmAmGmAmAmAmUmAmGmCrArArGrUrUrArArArArUrArArGrGrCrUrArGrUrCrCrGrUrUrArUrCrAmAmCmUmUmGmAmAmAmAmAmGmUmGmGmCmAmCmCmGmAmGmUmCmGmGmUmGmCmU*mU*mU*mU	69.13
G000491: TTR sgRNA modified sequence, Human, SEQ ID No. 98; guide sequence of CR003338 (nucleic acid) guide: mA*mU*mA*rCrCrArGrUrCrCrArGrCrArArGrGrCrArGrGrUrUrUrUrArGrAmGmCmUmAmGmAmAmAmUmAmGmCrArArGrUrUrArArArArUrArArGrGrCrUrArGrUrCrCrGrUrUrArUrCrAmAmCmUmUmGmAmAmAmAmAmGmUmGmGmCmAmCmCmGmAmGmUmCmGmGmUmGmCmU*mU*mU*mU	66.20
G000486: TTR sgRNA modified sequence, Human, SEQ ID No. 93; guide sequence of CR003339 (nucleic acid) guide: mA*mC*mA*rCrArArArUrArCrCrArGrUrCrCrArGrCrArGrUrUrUrUrArGrAmGmCmUmAmGmAmAmAmUmAmGmCrArArGrUrUrArArArArUrArArGrGrCrUrArGrUrCrCrGrUrUrArUrCrAmAmCmUmUmGmAmAmAmAmAmGmUmGmGmCmAmCmCmGmAmGmUmCmGmGmUmGmCmU*mU*mU*mU	79.90

Origin of values: patent US11795460B2
